Molecular target: HLA-B*40:01
Experiment: IEDB peptide-MHC binding, purified MHC/direct/fluorescence; filed as Kd, often an IC50 or EC50 that approximates it; bounds were set here for any values at or beyond the usual limits of such assays
Conditions: source organism: Influenza A virus (A/Hong Kong/507/97(H5N1))

Sequence Data	Kd
LAKSVFNSL	≥ 20 µM

* * *

Biological target: HLA-A*68:23
Test: IEDB peptide-MHC binding, purified MHC/competitive/fluorescence; filed as Kd, often an IC50 or EC50 that approximates it; bounds were set here for any values at or beyond the usual limits of such assays
Conditions: source organism: Giardia lamblia ATCC 50803
pKd: −log10 of the molar value.

Sequence Data	pKd
YTFFFTQYF	≥ 10.00

* * *

Target: HLA-B*15:01
Assay: IEDB peptide-MHC binding, purified MHC/competitive/fluorescence; filed as Kd, often an IC50 or EC50 that approximates it; bounds were set here for any values at or beyond the usual limits of such assays
Conditions: source organism: Homo sapiens

Sequence Data	Kd
VSDFRKEFY	≥ 20 µM
VLIRRCHYL	≥ 20 µM

* * *

Molecular target: HLA-B*08:02
Assay: IEDB peptide-MHC binding, purified MHC/direct/fluorescence; filed as Kd, often an IC50 or EC50 that approximates it; bounds were set here for any values at or beyond the usual limits of such assays
Settings: source organism: Variola virus
pKd: −log10 of the molar value.
Measured Endpoint: pKd

Sequence Data	Value Reported
YHRFGLYRL	≤ 4.70

* * *

Biological target: HLA-B*58:01
Test: IEDB peptide-MHC binding, purified MHC/direct/fluorescence; filed as Kd, often an IC50 or EC50 that approximates it; bounds were set here for any values at or beyond the usual limits of such assays
Settings: source organism: Vibrio vulnificus
pKd: −log10 of the molar value.

Sequence Data	Tested On	pKd
QSPQPVRVK	HLA-B*58:01	≤ 4.70

* * *

Target: HLA-A*31:01
Test: IEDB peptide-MHC binding, purified MHC/competitive/radioactivity; filed as Kd, often an IC50 or EC50 that approximates it; bounds were set here for any values at or beyond the usual limits of such assays
Conditions: source organism: Vaccinia virus Copenhagen
pKd: −log10 of the molar value.

Sequence Data	Tested On	pKd
RVIWMDAYK	HLA-A*31:01	8.98

* * *

Biological target: HLA-A*30:01
Assay: IEDB peptide-MHC binding, purified MHC/competitive/radioactivity; filed as Kd, often an IC50 or EC50 that approximates it; bounds were set here for any values at or beyond the usual limits of such assays
Details: source organism: Mammarenavirus juninense

Sequence Data	Tested On	Kd
GVLEEQGSFY	HLA-A*30:01	≥ 39.6 µM

* * *

Biological target: HLA-B*40:02
Test: IEDB peptide-MHC binding, purified MHC/competitive/radioactivity; filed as Kd, often an IC50 or EC50 that approximates it; bounds were set here for any values at or beyond the usual limits of such assays
Settings: source organism: SARS coronavirus Tor2
pKd: −log10 of the molar value.
Measured Endpoint: pKd

Sequence Data	Measured Endpoint	Limit Operator	Value Reported
TEHSWNADL	pKd	=	6.88
GETALALLL	pKd	=	8.11
VEYYPLLFIT	pKd	=	7.90
SEGVPDLLV	pKd	≤	4.43
REMLAHAEET	pKd	=	7.17
TEAFEKMVSL	pKd	=	7.46
VELKHFFFA	pKd	=	6.99

* * *

Target: HLA-B*27:03
Test: IEDB peptide-MHC binding, purified MHC/competitive/fluorescence; filed as Kd, often an IC50 or EC50 that approximates it; bounds were set here for any values at or beyond the usual limits of such assays
Conditions: source organism: Encephalitozoon cuniculi GB-M1

Sequence Data	Kd
NLFEIEWEE	≥ 20 µM

* * *

Target: HLA-A*26:01
Test: IEDB peptide-MHC binding, purified MHC/competitive/radioactivity; filed as Kd, often an IC50 or EC50 that approximates it; bounds were set here for any values at or beyond the usual limits of such assays
Details: source organism: SARS coronavirus Tor2

Sequence Data	Kd
HHANEYRQY	≥ 102 µM
DEEGNLLDSY	≥ 71.6 µM
LLEIKDKEQY	≥ 82.8 µM
GFELTSMKY	≥ 81.5 µM
DYAEISFML	≥ 68.9 µM
NQDLNGNWY	≥ 35 µM
HMVVKSALL	13.1 µM
TYHPNCINCL	≥ 69.7 µM
EHSWNADLY	4.41 µM
ILSDDAVVCY	≥ 38.8 µM
DSKEGFFTY	0.993 µM

* * *

Biological target: HLA-B*08:02
Assay: IEDB peptide-MHC binding, purified MHC/direct/fluorescence; filed as Kd, often an IC50 or EC50 that approximates it; bounds were set here for any values at or beyond the usual limits of such assays
Settings: source organism: Entamoeba histolytica
Measured Endpoint: Kd

Sequence Data	Value Reported
DFGYATMAK	≥ 20 µM

* * *

Molecular target: HLA-B*57:01
Test: IEDB peptide-MHC binding, purified MHC/direct/fluorescence; filed as Kd, often an IC50 or EC50 that approximates it; bounds were set here for any values at or beyond the usual limits of such assays
Conditions: source organism: Vibrio parahaemolyticus AQ3810
Measured Endpoint: Kd

Sequence Data	Value Reported
QTWKPDDVL	≥ 20 µM

* * *

Target: HLA-A*01:01
Test: IEDB peptide-MHC binding, purified MHC/direct/fluorescence; filed as Kd, often an IC50 or EC50 that approximates it; bounds were set here for any values at or beyond the usual limits of such assays
Details: source organism: Francisella tularensis subsp. holarctica LVS

Sequence Data	Tested On	Kd
YTDKIAMSY	HLA-A*01:01	≤ 1 nM

* * *

Target: HLA-A*02:11
Experiment: IEDB peptide-MHC binding, purified MHC/direct/fluorescence; filed as Kd, often an IC50 or EC50 that approximates it; bounds were set here for any values at or beyond the usual limits of such assays
Settings: source organism: Vibrio vulnificus YJ016
Measured Endpoint: Kd (nM)

Sequence Data	Unit Annotation	Value Reported
VVYKEAKIK	nM	868

* * *

Target: HLA-B*27:05
Assay: IEDB peptide-MHC binding, purified MHC/direct/fluorescence; filed as Kd, often an IC50 or EC50 that approximates it; bounds were set here for any values at or beyond the usual limits of such assays
Details: source organism: Salmonella enterica
Measured Endpoint: Kd

Sequence Data	Tested On	Measured Endpoint	Value Reported
AHSKAETEA	HLA-B*27:05	Kd	≥ 20 µM

* * *

Biological target: HLA-A*26:01
Experiment: IEDB peptide-MHC binding, purified MHC/direct/fluorescence; filed as Kd, often an IC50 or EC50 that approximates it; bounds were set here for any values at or beyond the usual limits of such assays
Settings: source organism: Giardia lamblia ATCC 50803
pKd: −log10 of the molar value.
Measured Endpoint: pKd

Sequence Data	Value Reported
WSFLEDRVY	≤ 4.70
SDRLHHDPL	≤ 4.70
QTSTLYDFY	≤ 4.70

* * *

Biological target: HLA-A*03:01
Experiment: IEDB peptide-MHC binding, purified MHC/competitive/radioactivity; filed as Kd, often an IC50 or EC50 that approximates it; bounds were set here for any values at or beyond the usual limits of such assays
Conditions: source organism: Dengue virus 3 Martinique/1243/1999
pKd: −log10 of the molar value.
Measured pKd, listed per entry.

Sequence Data	pKd
VLARWGTFKK	7.74
SIMKSVGTGK	8.08
GTSIFAGHLK	8.41
GAMLFLISGK	8.41

* * *

The entries below are paired with their reported pKd.
Target: HLA-A*02:06
Experiment: IEDB peptide-MHC binding, purified MHC/competitive/radioactivity; filed as Kd, often an IC50 or EC50 that approximates it; bounds were set here for any values at or beyond the usual limits of such assays
Conditions: source organism: SARS coronavirus Tor2
pKd: −log10 of the molar value.
Measured Endpoint: pKd

Sequence Data	Value Reported
WLLWPVTLA	7.76
LVFLWLLWPV	9.25
ALLFLMSFT	6.89
KLLIVLTCI	6.35

* * *

Molecular target: HLA-A*26:01
Assay: IEDB peptide-MHC binding, purified MHC/direct/fluorescence; filed as Kd, often an IC50 or EC50 that approximates it; bounds were set here for any values at or beyond the usual limits of such assays
Conditions: source organism: Entamoeba histolytica
pKd: −log10 of the molar value.

Sequence Data	pKd
DFGYATMAK	≤ 4.70

* * *

Target: HLA-B*58:01
Test: IEDB peptide-MHC binding, purified MHC/competitive/fluorescence; filed as Kd, often an IC50 or EC50 that approximates it; bounds were set here for any values at or beyond the usual limits of such assays
Conditions: source organism: Escherichia coli
pKd: −log10 of the molar value.

Sequence Data	Tested On	pKd
KGIHPQNHL	HLA-B*58:01	≤ 4.70

* * *

Target: HLA-A*02:03
Test: IEDB peptide-MHC binding, purified MHC/competitive/fluorescence; filed as Kd, often an IC50 or EC50 that approximates it; bounds were set here for any values at or beyond the usual limits of such assays
Settings: source organism: Vibrio parahaemolyticus RIMD 2210633
pKd: −log10 of the molar value.
Measured Endpoint: pKd

Sequence Data	Tested On	Measured Endpoint	Value Reported
HVIYFTAFT	HLA-A*02:03	pKd	≤ 4.70
